Entries and their z-score values follow.
test: CREB reporter modulators under forskolin, primary screen, cell-based, PC12, CRE-LacZ reporter, forskolin-stimulated (AID 1146); conditions: luminescence, 4.5 h, higher = more signal, called active from +8 up or from −8 down;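 note: PC12 cells with 6xCRE LacZ reporter stimulated by forskolin 10 µM; beta-galactosidase reporter signal reflecting CREB driven transcription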
Activity calls are given as the source filed them.

Previously resolved entries follow.
MOLECULE	z-score
C=C[C@H](C)[C@@H](O)c1ccc(O)c2ccccc12	1.63 (inactive)
CCOC(=O)C[C@H]1[C@H](OC(=O)c2ccc(-c3ccccc3)cc2)[C@@H](NC(=O)c2ccc(-c3ccccc3)cc2)c2cc(OCCCO)ccc2N1C(=O)Cc1ccc(OC)cc1	-0.494 (inactive)
N[C@@H](Cc1ccccc1)Cn1cc(-c2ccccc2)nn1	0.292 (inactive)
COc1ccc([Si](C)(C)[C@H]2[C@H](CCn3cc(CCO)nn3)O[C@@]3(C(=O)N(Cc4ccc(N5CCOC5=O)cc4)c4ccccc43)[C@@H]2C)cc1	-2.21 (inactive)
CCCCC=C[C@@H](NC(=O)c1cccs1)c1ccccc1	-0.548 (inactive)
CN(C)C(=O)[C@@]1(CCC(=O)OC(C)(C)C)N=C(c2ccc(OCCCO)cc2)O[C@H]1c1ccccc1	-1.4 (inactive)

**Q:** Fill in z-score for record `C=CCOC(=O)[C@H]1[C@@H]2C(=O)O[C@@H](c3ccccc3)[C@@H](c3ccccc3)N2[C@@H](c2ccc(OCCOC(=O)[C@@H]3C[C@@H]4C(=O)NCC(=O)N4[C@@H]3c3ccc(O)cc3)cc2)[C@]12C(=O)Nc1ccccc12`
**A:** -0.979 (inactive)

**Q:** Fill in z-score for record `CCOC(=O)C[C@H]1[C@H](OC(=O)Cc2ccc3c(c2)OCO3)[C@@H](NC(=O)C2CCCCC2)c2cc(OCCCO)ccc2N1C(=O)Cc1ccc(OC)cc1`
**A:** -0.943 (inactive)

**Q:** Fill in z-score for record `[N-]=[N+]=Nc1ccccc1[C@@H]1OC(c2ccc(OCCCO)cc2)=N[C@]1(CCS(=O)(=O)c1ccccc1)C(=O)N1CCOCC1`
**A:** -1.49 (inactive)

**Q:** Fill in z-score for record `C=CCNC(=O)[C@@H]1[C@H]2C(=O)O[C@H](c3ccccc3)[C@H](c3ccccc3)N2[C@H](c2ccc(OCCO)cc2)[C@@]12C(=O)Nc1ccccc12`
**A:** -1.87 (inactive)

**Q:** Fill in z-score for record COc1cccc(C(=O)O[C@H]2CC[C@]3(C)C4=C(CCC3C2(C)C)[C@]2(C)CC[C@H]([C@H](C)CCCC(C)C)[C@@]2(C)CC4)c1 (some centres undefined)
**A:** -0.687 (inactive)

**Q:** Fill in z-score for record `CO[C@H]1O[C@H](CO)[C@@H](OC(=O)Nc2ccc3c(c2)OCO3)[C@H](OC(=O)Nc2ccccc2)[C@H]1OC(=O)Nc1ccccc1`
**A:** -2.23 (inactive)

**Q:** Fill in z-score for record COC(=O)c1ccc(C23CC2(C(NP(=O)(c2ccccc2)c2ccccc2)c2ccccc2)C3)cc1 (centres undefined)
**A:** -0.0812 (inactive)

**Q:** Fill in z-score for record `CC1=C2[C@@H](CCc3ccccc3)OB(O)C[C@@H]2n2c(=O)n(-c3ccccc3)c(=O)n2C1`
**A:** -0.826 (inactive)

All values here come from PubChem BioAssay.
